This section lists AC50 readings for UniProt P35367.
Sequence (P35367 whole entry): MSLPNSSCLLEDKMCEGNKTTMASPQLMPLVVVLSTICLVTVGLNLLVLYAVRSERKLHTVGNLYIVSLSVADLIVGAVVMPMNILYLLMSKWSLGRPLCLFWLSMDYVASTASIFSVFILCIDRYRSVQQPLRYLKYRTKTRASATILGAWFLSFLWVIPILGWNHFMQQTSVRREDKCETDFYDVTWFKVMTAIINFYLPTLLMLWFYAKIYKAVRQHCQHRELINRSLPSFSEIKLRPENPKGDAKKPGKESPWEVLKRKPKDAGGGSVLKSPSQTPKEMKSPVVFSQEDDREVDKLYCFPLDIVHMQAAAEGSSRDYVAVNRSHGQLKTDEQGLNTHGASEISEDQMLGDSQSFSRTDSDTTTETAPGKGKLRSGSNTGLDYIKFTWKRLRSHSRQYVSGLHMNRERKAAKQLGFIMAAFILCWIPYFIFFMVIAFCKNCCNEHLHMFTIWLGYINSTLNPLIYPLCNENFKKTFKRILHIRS

### Prompt What AC50 value was documented for this compound, `CCCCOc1ccc(C(=O)CCN2CCCCC2)cc1` ?
### Response 8.5 µM

### Prompt What AC50 value was documented for this compound, O=c1[nH]c2ccccc2n1CCCN1CCN(C(c2ccccc2)c2ccccc2)CC1 [OXATOMIDE] ?
### Response 0.034 µM

### Prompt What AC50 value was documented for this compound, `CC(=O)[C@H]1CC[C@H]2[C@@H]3C[C@H](C)C4=CC(=O)CC[C@]4(C)[C@H]3[C@@H](O)C[C@]12C` ?
### Response > 10 µM

### Prompt What AC50 value was documented for this compound, `COc1ccc([C@@H]2CC(=O)c3c(O)cc(O)cc3O2)cc1O` ?
### Response > 10 µM

### Prompt What AC50 value was documented for this compound, CC(C)[C@@H](C)/C=C/[C@@H](C)[C@H]1CC[C@H]2/C(=C/C=C3\C[C@@H](O)CC[C@@H]3C)CCC[C@]12C [DIHYDROTACHYSTEROL] ?
### Response > 10 µM

### Prompt What AC50 value was documented for this compound, CC(=O)c1ccc(S(=O)(=O)NC(=O)NC2CCCCC2)cc1 [ACETOHEXAMIDE] ?
### Response > 10 µM

### Prompt What AC50 value was documented for this compound, `CCCc1nc2c(C)cc(-c3nc4ccccc4n3C)cc2n1Cc1ccc(-c2ccccc2C(=O)O)cc1` ?
### Response > 30 µM

### Prompt What AC50 value was documented for this compound, `CN1CCN=C(c2ccccc2)c2cc(Cl)ccc21` ?
### Response > 30 µM
